Target: human adenosine A1 receptor (Homo sapiens, UniProt P30542)
Construct: host or cells: CHO or HEK cells
Sequence (P30542 whole entry): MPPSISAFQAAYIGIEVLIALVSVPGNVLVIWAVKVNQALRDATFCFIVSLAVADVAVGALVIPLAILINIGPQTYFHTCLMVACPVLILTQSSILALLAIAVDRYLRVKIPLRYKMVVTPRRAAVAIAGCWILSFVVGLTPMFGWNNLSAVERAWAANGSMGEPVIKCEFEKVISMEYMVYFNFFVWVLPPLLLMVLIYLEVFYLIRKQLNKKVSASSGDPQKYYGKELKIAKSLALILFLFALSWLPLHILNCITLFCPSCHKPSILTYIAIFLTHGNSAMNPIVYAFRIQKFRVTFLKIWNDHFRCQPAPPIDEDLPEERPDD
Assay: Competitive radioligand binding with [3H]CCPA, membranes of CHO or HEK cells
Conditions: [3H]CCPA; mean ± SEM of three independent assays
readout type: pKi
Answer as the number alone; pKi is minus log10 of concentration in mol/L.

Form field - read-out: pKi; system: human adenosine A1 receptor (Homo sapiens, UniProt P30542); submitted item: O=c1[nH]c(=O)c2cc(-c3ccnc(F)c3)c(-c3ccco3)nc2[nH]1
6.83

----------
Target: human adenosine A3 receptor (Homo sapiens)
Construct: host or cells: CHO or HEK cells
Sequence (P0DMS8 whole entry): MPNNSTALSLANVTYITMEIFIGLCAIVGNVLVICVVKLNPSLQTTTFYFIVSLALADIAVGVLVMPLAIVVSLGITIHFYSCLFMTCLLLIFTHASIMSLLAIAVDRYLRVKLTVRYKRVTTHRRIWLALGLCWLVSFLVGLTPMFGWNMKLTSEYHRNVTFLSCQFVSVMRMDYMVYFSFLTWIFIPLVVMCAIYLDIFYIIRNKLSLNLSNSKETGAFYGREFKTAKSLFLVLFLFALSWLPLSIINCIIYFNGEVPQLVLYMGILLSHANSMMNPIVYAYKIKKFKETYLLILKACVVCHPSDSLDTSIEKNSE
Assay: Competitive radioligand binding with [3H]PSB-11, membranes of CHO or HEK cells
Conditions: [3H]PSB-11; mean ± SEM of three independent assays
readout type: Ki

Please give the measured Ki for this compound: O=c1[nH]c(=O)c2cc(-c3ccnc(F)c3)c(-c3ccco3)nc2[nH]1
286 nM

Please give the measured Ki for this compound: O=c1[nH]c(=O)c2cc(-c3ccncn3)c(-c3ccco3)nc2[nH]1
> 1000 nM

----------
Molecular target: human adenosine A2B receptor (Homo sapiens)
Construct: host or cells: CHO or HEK cells
Sequence (P29275 whole entry): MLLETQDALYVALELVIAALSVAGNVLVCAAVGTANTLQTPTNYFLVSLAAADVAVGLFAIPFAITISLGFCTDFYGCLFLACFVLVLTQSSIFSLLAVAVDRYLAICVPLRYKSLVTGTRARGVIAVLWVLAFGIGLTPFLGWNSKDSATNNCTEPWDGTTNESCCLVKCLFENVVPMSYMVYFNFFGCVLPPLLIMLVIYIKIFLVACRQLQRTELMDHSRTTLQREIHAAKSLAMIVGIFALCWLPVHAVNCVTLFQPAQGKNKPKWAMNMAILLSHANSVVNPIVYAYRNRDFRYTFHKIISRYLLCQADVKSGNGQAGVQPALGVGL
Test: Competitive radioligand binding with [3H]PSB-603, membranes of CHO or HEK cells
Settings: mean ± SEM of three independent assays
readout type: Ki (nM)
Field format: number, assumed nM, no unit text.

Please give the measured Ki for this molecule: O=c1[nH]c(=O)c2cc(-c3ccncn3)c(-c3ccco3)nc2[nH]1 [Compound 2]
2.51

Please give the measured Ki for this molecule: O=c1[nH]c(=O)c2cc(-c3ccnc(F)c3)c(-c3ccco3)nc2[nH]1 [Compound 9]
2.51
